// reported pKd per item
molecular target: HLA-A*24:02 molecule (Homo sapiens, UniProt P04439, D101N/D140Y/D185E/E176V/E190D/F33S/G103R/G107R/I119L/I121M/I306V/K335N/L105A/L180Q/L300P/N151K/N90K/Q86E/Q94H/R106L/R138H/R89G/T104I/T345S/V100E/W191G/Y123F); experiment: Binding of peptide to HLA-A*24:02 molecule using C1R-A24 cells; settings: Measured value of allele A*24:02, Table 2; dissociation constant Kd value (−log Kd value); >−3.0 = no significant binding ability
No end group written: not given here.
// field semantics: pKd = negative decimal log of concentration (mol/L)

Completed entries (count: 6):
Q) I have this sequence here, ALQFLIPRL [compound 22] , and I need its recorded pKd.
A) 4.96

Q) Requested field: pKd. Item: IQYSSFHNL [compound 21]
A) 6.53

Q) What value of pKd has been reported for the following sequence? IALETPVWI [compound 20]
A) 5.48

Q) Requested read-out: pKd. Entry: ALQPPCPNL [compound 31]
A) 5.31

Q) Can you look up the measured pKd of AQAPPTAQL [compound 5] for me?
A) 5.75

Q) pKd lookup needed for YQLSPPITW [compound 32] , thanks.
A) 5.76

# ---- query sequence ----
Q) Could you share which pKd value was measured for ALPAPHLTL [compound 18] ?
A) 6.73

---

Biological target: HLA-A*24:02 molecule (Homo sapiens, UniProt P04439, D101N/D140Y/D185E/E176V/E190D/F33S/G103R/G107R/I119L/I121M/I306V/K335N/L105A/L180Q/L300P/N151K/N90K/Q86E/Q94H/R106L/R138H/R89G/T104I/T345S/V100E/W191G/Y123F)
Test: Binding of peptide to HLA-A*24:02 molecule using C1R-A24 cells
Settings: Table 2; dissociation constant Kd value (−log Kd value); >−3.0 = no significant binding ability; read-out: Measured value of allele A*24:02 (converted)
Experimental: Measurement of binding ability of a peptide to an HLA-A*24:02 molecule, which is a product of an HLA-A*24:02 gene, was performed using C1R-A24 cells expressing an HLA-A*24:02 molecule (Cells created by Professor Masafumi Takiguchi, Kumamoto University, was provided by Assistant Professor Masaki Yasukawa, Ehime University, with permission). […]
No end group written: not given here.
log10(Kd) listing for selected sequences.
Please be aware that the numbers have been log10-transformed from Kd in µM.

Study these solved cases before continuing.
Q) Using the record for ALLAPAVLL [compound 7] , report its log10(Kd).
A) 0.04

Q) For LLNPNRQTI [compound 23] , what is its reported log10(Kd)?
A) -0.22

Q) Would you kindly share the measured log10(Kd) for GYITCERPF [compound 65] ?
A) -0.52

Q) Dear colleague, I am looking for the recorded log10(Kd) of the following sequence: CDLSSFEFF [compound 58]
A) 1.90

Q) Query: log10(Kd); subject: CMIVHQGTI [compound 36]
A) 0.46

Further cases:
Q) Consider the sequence ALRPAPALL [compound 26] and give its measured log10(Kd).
A) -0.40

Q) Looking for the measured log10(Kd) of LTITRKSFI [compound 45] , can you help?
A) 1.18

Q) State the recorded log10(Kd) for this entry: LLLFSAAAL [compound 1]
A) 1.05

Q) Looking for the measured log10(Kd) of VLLQQFQTA [compound 15] , can you help?
A) 0.45

---

target: HLA-A*02:01 molecule (Homo sapiens, UniProt P04439, D140Y/D185E/D98H/E176V/E277Q/G131W/G231S/I119V/I121R/I166T/I218V/L300P/L318F/N151K/N90K/P208A/P217A/Q86G/Q94H/R138H/R169H/T345S); construct: using a cell line T2 (purchased from ATCC) expressing an HLA-A*02:01 molecule; host or cells: T2 cell line; assay: Binding of peptide to HLA-A*02:01 molecule using cell line T2; conditions: Table 2; dissociation constant Kd value (−log Kd value); >−3.0 = no significant binding ability; read-out: Measured value of allele A*02:01 (converted)
No end group written: not given here.
// map Kd onto a label; ranges low band: < 2 µM; middle band: ≥ 2 µM and < 10 µM; high band: ≥ 10 µM

Consider the worked cases shown below.
Q) Field: class (Kd) — entry: SLLITRKSF [compound 62]
A) high band

Q) Place this sequence in its band: CIDEHQWQL [compound 28]
A) high band

Q) Classify this sequence: LVITRKSFI [compound 30]
A) high band

New cases:
Q) Please report the category associated with LIEEHGATL [compound 40] , nothing else.
A) high band

Q) Using the reported Kd, which band applies to SSLDPPKVL [compound 55] ?
A) high band

---

molecular target: HLA-A*02:06 molecule (Homo sapiens, UniProt P04439, D140Y/D185E/D98H/E176V/E277Q/F33Y/G131W/G231S/I119V/I121R/I166T/I218V/L300P/L318F/N151K/N90K/P208A/P217A/Q86G/Q94H/R138H/R169H/T345S); construct: expressed in transfected cells; host or cells: RA2.6 cells (mouse TAP-deficient RMAS with HLA-A*02:06 cDNA); experiment: Binding of peptide to HLA-A*02:06 molecule using RA2.6 cells
No end group written: not given here.
Parameter: pKd. Scope: all listed entries.
Quick note: pKd means taking -log10 of the concentration in moles per liter.

Recorded results for 6 sequences are shown here.
Q) Requested read-out: pKd. Entry: ALPAPHLTL [compound 18]
A) 5.52

Q) Recorded pKd of AQAPPTAQL [compound 5] , please.
A) 5.85

Q) Sample IALETPVWI [compound 20] — what was its pKd?
A) 5.52

Q) I have this sequence here, TLTAWQHGL [compound 33] , and I need its recorded pKd.
A) 5.85

Q) # lookup: pKd of ALQFLIPRL [compound 22]
A) 5.84

Q) Which pKd is reported for this sequence? IQYSSFHNL [compound 21]
A) 5.60

---
Q) Consider the sequence shown here: YQLSPPITW [compound 32] What is its recorded pKd?
A) 5.75

Q) Name the reported pKd value associated with the sequence ALQPPCPNL [compound 31]
A) 4.64

---

Target: HLA-A*24:02 molecule (Homo sapiens, UniProt P04439, D101N/D140Y/D185E/E176V/E190D/F33S/G103R/G107R/I119L/I121M/I306V/K335N/L105A/L180Q/L300P/N151K/N90K/Q86E/Q94H/R106L/R138H/R89G/T104I/T345S/V100E/W191G/Y123F)
Test: Binding of peptide to HLA-A*24:02 molecule using C1R-A24 cells
Conditions: Measured value of allele A*24:02, Table 4; Kd value (−log Kd value); smaller than −3 = binding property
Experimental: Measurement of binding ability of a peptide to an HLA-A*24:02 molecule, which is a product of an HLA-A*24:02 gene, was performed using C1R-A24 cells expressing an HLA-A*24:02 molecule (Cells created by Professor Masafumi Takiguchi, Kumamoto University, was provided by Assistant Professor Masaki Yasukawa, Ehime University, with permission). […]
No end group written: not given here.
measurementType: Kd (nM)
Report only the number, with the unit nM understood.

Q) For YQLSPPITW [compound 32] , what is its reported Kd?
A) 172

---

Target: HLA-A*24:02 molecule (Homo sapiens, UniProt P04439, D101N/D140Y/D185E/E176V/E190D/F33S/G103R/G107R/I119L/I121M/I306V/K335N/L105A/L180Q/L300P/N151K/N90K/Q86E/Q94H/R106L/R138H/R89G/T104I/T345S/V100E/W191G/Y123F)
Test: Binding of peptide to HLA-A*24:02 molecule using C1R-A24 cells
Details: Table 2; dissociation constant Kd value (−log Kd value); >−3.0 = no significant binding ability; read-out: Measured value of allele A*24:02 (converted)
Method: Measurement of binding ability of a peptide to an HLA-A*24:02 molecule, which is a product of an HLA-A*24:02 gene, was performed using C1R-A24 cells expressing an HLA-A*24:02 molecule (Cells created by Professor Masafumi Takiguchi, Kumamoto University, was provided by Assistant Professor Masaki Yasukawa, Ehime University, with permission). […]
No end group written: not given here.
Each item that follows carries a reported Kd.
Reply with just the number (in µM).

Q) Given LMEEHGATL [compound 13] , state its recorded Kd.
A) 5.98

Attention now shifts to the item below.
Q) Consider the sequence shown here: LMITRKSFI [compound 17] What is its recorded Kd?
A) 0.972
